Values were extracted from ChEMBL document CHEMBL3734695.

system: MCF7; test: Cytotoxicity against human MCF7 cells assessed as growth inhibition after 72 hrs by MTT assay; assay type: functional, cell-based; conditions: MCF7, 72 h
test.readout: pIC50
Remember, pIC50 is on a log scale: it is -log10 of the molar concentration.

Exercise: // output pIC50; input C=C1CC[C@@H]2[C@](C)(CO)[C@H](O)CC[C@@]2(C)[C@@H]1CC1CN(Cc2ccccc2)[C@@]2(C(=O)Nc3c(F)cccc32)[C@]12C(=O)OC[C@H]2O (stereo not given in full) ; system MCF7
Solution: 4.86

Exercise: // output pIC50; input C=C1CC[C@@H]2[C@](C)(CO)[C@H](O)CC[C@@]2(C)[C@@H]1CC1CN(Cc2ccccc2)[C@@]2(C(=O)c3cccc4cccc2c34)[C@]12C(=O)OC[C@H]2O (stereo not given in full) ; system MCF7
Solution: 5.05

Exercise: // output pIC50; input C=C1CC[C@@H]2[C@](C)(CO)[C@H](O)CC[C@@]2(C)[C@@H]1CC1CN(Cc2ccccc2)[C@@]2(C(=O)Nc3ccc(C)cc32)[C@]12C(=O)OC[C@H]2O (stereo not given in full) ; system MCF7
Solution: 4.96

Exercise: // output pIC50; input C=C1CC[C@@H]2[C@](C)(CO)[C@H](O)CC[C@@]2(C)[C@@H]1CC1CN(Cc2ccccc2)[C@@]2(C(=O)Nc3ccc(Br)cc32)[C@]12C(=O)OC[C@H]2O (stereo not given in full) ; system MCF7
Solution: 4.89

Exercise: // output pIC50; input C=C1CC[C@@H]2[C@](C)(CO)[C@H](O)CC[C@@]2(C)[C@@H]1CC1CN(Cc2ccccc2)[C@@]2(C(=O)Nc3ccc(Cl)cc32)[C@]12C(=O)OC[C@H]2O (stereo not given in full) ; system MCF7
Solution: 4.90
